- target.of.assay: HLA-B*15:01
- procedure.details: IEDB peptide-MHC binding, purified MHC/direct/fluorescence; filed as Kd, often an IC50 or EC50 that approximates it; bounds were set here for any values at or beyond the usual limits of such assays
- protocol.conditions: source organism: Camelpox virus M-96
pKd: −log10 of the molar value.

sequence.data: IQFMHEQGY
target.of.assay: HLA-B*15:01
pKd: 7.28

====

Overview of recorded pKd for various sequences
- target.of.assay: HLA-A*02:01
- procedure.details: IEDB peptide-MHC binding, purified MHC/direct/fluorescence; filed as Kd, often an IC50 or EC50 that approximates it; bounds were set here for any values at or beyond the usual limits of such assays
- protocol.conditions: source organism: Yersinia pestis
pKd: −log10 of the molar value.

sequence.data: QWSPGPGRL
pKd: ≤ 4.70
//
sequence.data: YGLGSTPLY
pKd: ≤ 4.70

====

- target.of.assay: HLA-B*58:01
- procedure.details: IEDB peptide-MHC binding, purified MHC/direct/fluorescence; filed as Kd, often an IC50 or EC50 that approximates it; bounds were set here for any values at or beyond the usual limits of such assays
- protocol.conditions: source organism: Influenza A virus (A/Viet Nam/HN/2004(H5N1))
pKd: −log10 of the molar value.

sequence.data: FRNQVKIRR
pKd: ≤ 4.70

====

- target.of.assay: HLA-A*31:01
- procedure.details: IEDB peptide-MHC binding, purified MHC/competitive/radioactivity; filed as Kd, often an IC50 or EC50 that approximates it; bounds were set here for any values at or beyond the usual limits of such assays
- protocol.conditions: source organism: Vaccinia virus WR
Output label 1 for records whose Kd is lower than 1000 nM, label 0 for records at or above 1000 nM.

sequence.data: RVDIYYNGNK
group: label 0
//
sequence.data: ITPDDGLGLR
group: label 0
//
sequence.data: TFNSLNTDDY
group: label 0
//
sequence.data: GLTTHCTKLR
group: label 1
//
sequence.data: STRTIILVGY
group: label 1
//
sequence.data: VSYEVFDDY
group: label 0
//
sequence.data: GSTAEQLSK
group: label 0
//
sequence.data: PISELSRLRY
group: label 0
//
sequence.data: IVLFQRFLR
group: label 1
//
sequence.data: KTDFKVVKK
group: label 1
//
sequence.data: KLITPNYMK
group: label 1

====

- target.of.assay: HLA-A*26:03
- procedure.details: IEDB peptide-MHC binding, purified MHC/competitive/fluorescence; filed as Kd, often an IC50 or EC50 that approximates it; bounds were set here for any values at or beyond the usual limits of such assays
- protocol.conditions: source organism: Giardia lamblia ATCC 50803

sequence.data: FMKVKFEAL
Kd: ≥ 20 µM

====

- target.of.assay: HLA-A*26:02
- procedure.details: IEDB peptide-MHC binding, purified MHC/direct/fluorescence; filed as Kd, often an IC50 or EC50 that approximates it; bounds were set here for any values at or beyond the usual limits of such assays
- protocol.conditions: source organism: Escherichia coli O157:H7 str. EDL933
pKd: −log10 of the molar value.
property: pKd

sequence.data: FTHREQLFM
property: pKd
assay.value: 7.55

====

Items are presented alongside their recorded pKd.
- target.of.assay: HLA-A*03:01
- procedure.details: IEDB peptide-MHC binding, purified MHC/direct/fluorescence; filed as Kd, often an IC50 or EC50 that approximates it; bounds were set here for any values at or beyond the usual limits of such assays
- protocol.conditions: source organism: Giardia lamblia ATCC 50803
pKd: −log10 of the molar value.
property: pKd

sequence.data: PPPPLQHPI
target.of.assay: HLA-A*03:01
property: pKd
assay.value: ≤ 4.70
//
sequence.data: LLIQGLKTV
target.of.assay: HLA-A*03:01
property: pKd
assay.value: ≤ 4.70
//
sequence.data: RHIAIQVCY
target.of.assay: HLA-A*03:01
property: pKd
assay.value: ≤ 4.70
//
sequence.data: TTIEDILPK
target.of.assay: HLA-A*03:01
property: pKd
assay.value: 5.55
//
sequence.data: AEFPVGSTA
target.of.assay: HLA-A*03:01
property: pKd
assay.value: ≤ 4.70
//
sequence.data: TVDSLSPLK
target.of.assay: HLA-A*03:01
property: pKd
assay.value: 6.44
